These data points were gathered from ChEMBL document CHEMBL3758135.

- Assay target: Prostaglandin E synthase (Homo sapiens, UniProt O14684)
- Sequence (O14684 whole entry): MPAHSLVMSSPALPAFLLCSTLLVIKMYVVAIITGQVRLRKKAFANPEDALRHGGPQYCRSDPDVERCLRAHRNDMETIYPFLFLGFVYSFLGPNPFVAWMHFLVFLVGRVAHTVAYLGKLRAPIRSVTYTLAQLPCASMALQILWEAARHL
- Experimental protocol: Inhibition of mPGES-1 in human IL-1beta-stimulated A549 cell microsomes assessed as reduction of PGE2 formation from PGH2 preincubated for 15 mins by HPLC analysis
Items are presented alongside their recorded IC50.
Measure name: IC50 (nM)

[[record]]
mol = "COc1cc(/C=C/C(=O)CC(=O)/C=C/c2ccc(OCC=C(C)C)c(OC)c2)ccc1OCC=C(C)C"
measure_name = "IC50"
numeric_readout = 2000

[[record]]
mol = "COc1cc(/C=C/C(=O)CC(=O)/C=C/c2ccc(OC/C=C(\\C)CCC=C(C)C)c(OC)c2)ccc1O"
measure_name = "IC50"
numeric_readout = 1020

[[record]]
mol = "COc1cc(/C=C/C(=O)C(C/C=C(\\C)CCC=C(C)C)(C/C=C(\\C)CCC=C(C)C)C(=O)/C=C/c2ccc(OC/C=C(\\C)CCC=C(C)C)c(OC)c2)ccc1OC/C=C(\\C)CCC=C(C)C"
measure_name = "IC50"
numeric_readout = 2000

[[record]]
mol = "COc1cc(/C=C/C(=O)C(CC=C(C)C)(CC=C(C)C)C(=O)/C=C/c2ccc(OCC=C(C)C)c(OC)c2)ccc1OCC=C(C)C"
measure_name = "IC50"
numeric_readout = 2000

